Target: Li-TryR dimeric form (Leishmania infantum)
Assay: Dimer quantitation assay (ELISA), Li-TryR monomer displacement
Type: binding
Settings: read-out: IC50 dim
pIC50: −log10 of the molar value. Where a name gives a salt, the structure may show the parent alone.
readout_label: pIC50

Please review the following examples before continuing.
In: Please report pIC50 with Li-TryR dimeric form (Leishmania infantum) for item NCCCCc1cn(-c2ccc(-c3nc(-c4ccccc4)cs3)c(OCCN3CCNC3=O)c2)nn1 [Compound 8c, trifluoroacetate] .
Out: 4.54

In: Please report pIC50 with Li-TryR dimeric form (Leishmania infantum) for item C[n+]1nn(-c2ccc(-c3nc(CCc4ccccc4)cs3)c(OCCC3CCNCC3)c2)cc1CCCCN [Compound 10k] .
Out: < 4.12

In: Please report pIC50 with Li-TryR dimeric form (Leishmania infantum) for item C[n+]1nn(-c2ccc(-c3nc(CCc4ccccc4)cs3)c(OCCN3CCNC3=O)c2)cc1CCCCN [Compound 10b] .
Out: < 4.12

In: Please report pIC50 with Li-TryR dimeric form (Leishmania infantum) for item CC(C)Oc1csc(-c2ccc(-n3cc(CCCCN)nn3)cc2OCCN2CCNC2=O)n1 [Compound 8a, trifluoroacetate] .
Out: < 4.12

In: Please report pIC50 with Li-TryR dimeric form (Leishmania infantum) for item C[n+]1nn(-c2ccc(-c3nc(-c4ccccc4)cs3)c(OCCN3CCNC3=O)c2)cc1CCCCN [Compound 10a] .
Out: < 4.12

In: Please report pIC50 with Li-TryR dimeric form (Leishmania infantum) for item NCCCCc1cn(-c2ccc(-c3nc(CCc4ccccc4)cs3)c(OCCC3CCNCC3)c2)nn1 [Compound 8l, trifluoroacetate] .
Out: < 4.12

Others:
In: Please report pIC50 with Li-TryR dimeric form (Leishmania infantum) for item NCCCc1cn(-c2ccc(-c3nc(CCc4ccc(-c5ccccc5)cc4)cs3)c(OCCN3CCNC3=O)c2)nn1 [Compound 8o, trifluoroacetate] .
Out: 4.96

In: Please report pIC50 with Li-TryR dimeric form (Leishmania infantum) for item C[n+]1nn(-c2ccc(-c3nc(CCc4ccccc4)cs3)c(OCCN3CCNC3=O)c2)cc1CCCN [Compound 10i] .
Out: < 4.12

In: Please report pIC50 with Li-TryR dimeric form (Leishmania infantum) for item NCCCCc1cn(-c2ccc(-c3nc(-c4ccccc4)c(-c4ccccc4)s3)c(OCCN3CCNC3=O)c2)nn1 [Compound 8p, trifluoroacetate] .
Out: 5.38

In: Please report pIC50 with Li-TryR dimeric form (Leishmania infantum) for item C[n+]1nn(-c2ccc(-c3nc(-c4ccccc4)c(-c4ccccc4)s3)c(OCCN3CCNC3=O)c2)cc1CCCCN [Compound 10l] .
Out: < 4.12

In: Please report pIC50 with Li-TryR dimeric form (Leishmania infantum) for item NCCCc1cn(-c2ccc(-c3nc(CCc4ccccc4)cs3)c(OCCN3CCNC3=O)c2)nn1 [Compound 8n, trifluoroacetate] .
Out: < 4.12

In: Please report pIC50 with Li-TryR dimeric form (Leishmania infantum) for item C[n+]1nn(-c2ccc(-c3nc(CCc4ccc(-c5ccccc5)cc4)cs3)c(OCCN3CCNC3=O)c2)cc1CCCN [Compound 10j] .
Out: 4.52

* * *

Target: recombinant Li-TryR (Leishmania infantum, UniProt A4HSF7)
Sequence (A4HSF7 entry or part of it): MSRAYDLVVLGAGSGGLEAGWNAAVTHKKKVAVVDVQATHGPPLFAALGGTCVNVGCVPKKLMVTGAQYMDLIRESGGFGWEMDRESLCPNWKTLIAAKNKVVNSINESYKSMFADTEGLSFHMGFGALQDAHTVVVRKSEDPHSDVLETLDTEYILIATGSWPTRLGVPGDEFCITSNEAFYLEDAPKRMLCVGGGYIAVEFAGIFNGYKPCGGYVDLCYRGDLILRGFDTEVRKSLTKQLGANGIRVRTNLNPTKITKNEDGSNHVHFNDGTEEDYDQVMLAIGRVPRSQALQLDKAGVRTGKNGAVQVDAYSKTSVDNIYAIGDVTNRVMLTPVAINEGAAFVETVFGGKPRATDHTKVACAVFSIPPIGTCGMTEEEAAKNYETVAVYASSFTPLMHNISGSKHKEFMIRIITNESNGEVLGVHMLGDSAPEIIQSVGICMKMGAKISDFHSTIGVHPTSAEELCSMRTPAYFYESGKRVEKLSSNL
Test: Li-TryR oxidoreductase activity assay
Type: biochemical
Settings: read-out: IC50 act
Description: Oxidoreductase activity was determined according to the method described by Hamilton et al. (Biochem. J., 2003, 369, 529-537). […] Enzyme activity was monitored by the increase in absorbance at 412 nm for 1 h at 26 °C in a VERSAmax microplate reader (Molecular Devices, California, USA). […] Data were analyzed using a non-linear regression model with the Grafit6 software (Erithacus, Horley, Surrey, UK).
Structures can show the parent of a compound that is named as a salt.
pIC50 overview
Friendly reminder that pIC50 comes from taking -log10 of the concentration in mol/L.

Please review the following examples before continuing.
In: Output pIC50 of NCCCc1cn(-c2ccc(-c3nc(CCc4ccc(-c5ccccc5)cc4)cs3)c(OCCN3CCNC3=O)c2)nn1 [Compound 8o, trifluoroacetate]
Out: 4.66

In: Output pIC50 of NCCCCc1cn(-c2ccc(-c3nc(-c4ccccc4)cs3)c(OCCN3CCNC3=O)c2)nn1 [Compound 8c, trifluoroacetate]
Out: 4.62

Others:
In: Output pIC50 of NCCCCc1cn(-c2ccc(-c3nc(-c4ccccc4)c(-c4ccccc4)s3)c(OCCN3CCNC3=O)c2)nn1 [Compound 8p, trifluoroacetate]
Out: 5.22

In: Output pIC50 of C[n+]1nn(-c2ccc(-c3nc(-c4ccccc4)c(-c4ccccc4)s3)c(OCCN3CCNC3=O)c2)cc1CCCCN [Compound 10l]
Out: 5.03

In: Output pIC50 of CC(C)Oc1csc(-c2ccc(-n3cc(CCCCN)nn3)cc2OCCN2CCNC2=O)n1 [Compound 8a, trifluoroacetate]
Out: 4.30

In: Output pIC50 of NCCCCc1cn(-c2ccc(-c3nc(CCc4ccccc4)cs3)c(OCCC3CCNCC3)c2)nn1 [Compound 8l, trifluoroacetate]
Out: 5.24

* * *

pIC50 overview
Biological target: Li-TryR dimeric form (Leishmania infantum, UniProt A4HSF7)
Sequence (A4HSF7 entry or part of it): as above
Experiment: Dimer quantitation assay (ELISA), Li-TryR monomer displacement
Type: binding
Counter-ions that a name gives are not always drawn.
Friendly reminder that pIC50 comes from taking -log10 of the concentration in mol/L.

In: Output pIC50 of CC[n+]1nn(-c2ccc(-c3nc(CCc4ccc(-c5ccccc5)cc4)cs3)c(OCCN3CCNC3=O)c2)cc1CCCCN [Compound 10f]
Out: 4.06

In: Output pIC50 of C[n+]1nn(-c2ccc(-c3nc(CCc4ccc5ccccc5c4)cs3)c(OCCN3CCNC3=O)c2)cc1CCCCN [Compound 10c]
Out: 4.08

In: Output pIC50 of C[n+]1nn(-c2ccc(-c3nc(CCc4ccc(-c5ccccc5)cc4)cs3)c(OCCN3CCNC3=O)c2)cc1CCCCN [Compound 10e]
Out: 4.62

In: Output pIC50 of NCCCCc1cn(-c2ccc(-c3nc(CCc4ccc(-c5ccccc5)cc4)cs3)c(OCCN3CCNC3=O)c2)nn1 [Compound 8h, trifluoroacetate]
Out: 5.23

Others:
In: Output pIC50 of NCCCCc1cn(-c2ccc(-c3nc(CCc4ccc5ccccc5c4)cs3)c(OCCN3CCNC3=O)c2)nn1 [Compound 8g, trifluoroacetate]
Out: 4.95

In: Output pIC50 of COc1cc(-n2cc(CCCCN)nn2)ccc1-c1nc(CCc2ccccc2)cs1 [Compound 8m, trifluoroacetate]
Out: 4.05

* * *

Test system: L. infantum axenic amastigotes
Assay: Leishmanicidal activity on axenic amastigotes (PI exclusion, flow cytometry)
Format: cell-based
Conditions: Leishmania infantum, 24 h
Structures can show the parent of a compound that is named as a salt.
readout_label: EC50 (µM)
Expressed in µM, but write only the number.

In: Output EC50 of CC[n+]1nn(-c2ccc(-c3nc(CCc4ccc(-c5ccccc5)cc4)cs3)c(OCCN3CCNC3=O)c2)cc1CCCCN [Compound 10f]
Out: 15.5

# context switch: different molecule, same EC50
In: Output EC50 of NCCCCc1cn(-c2ccc(-c3nc(CCc4ccc(-c5ccccc5)cc4)cs3)c(OCCN3CCNC3=O)c2)nn1 [Compound 8h, trifluoroacetate]
Out: 13.9

* * *

Target: recombinant Li-TryR (Leishmania infantum, UniProt A4HSF7)
Assay: Li-TryR oxidoreductase activity assay
Type: biochemical
Counter-ions that a name gives are not always drawn.
pIC50 overview
Friendly reminder that pIC50 comes from taking -log10 of the concentration in mol/L.

Please review the following examples before continuing.
In: Output pIC50 of COc1cc(-n2cc(CCCCN)nn2)ccc1-c1nc(CCc2ccccc2)cs1 [Compound 8m, trifluoroacetate]
Out: 4.76

In: Output pIC50 of C[n+]1nn(-c2ccc(-c3nc(CCc4ccc5ccccc5c4)cs3)c(OCCN3CCNC3=O)c2)cc1CCCCN [Compound 10c]
Out: 5.57

In: Output pIC50 of NCCCCc1cn(-c2ccc(-c3nc(CCc4ccc(-c5ccccc5)cc4)cs3)c(OCCN3CCNC3=O)c2)nn1 [Compound 8h, trifluoroacetate]
Out: 4.94

In: Output pIC50 of NCCCCc1cn(-c2ccc(-c3nc(CCc4ccc5ccccc5c4)cs3)c(OCCN3CCNC3=O)c2)nn1 [Compound 8g, trifluoroacetate]
Out: 5.21

In: Output pIC50 of CC(C)(C)Cc1csc(-c2ccc(-n3cc(CCCCN)nn3)cc2OCCN2CCNC2=O)n1 [Compound 8b, trifluoroacetate]
Out: 4.76

Others:
In: Output pIC50 of C[n+]1nn(-c2ccc(-c3nc(CCc4ccc(-c5ccccc5)cc4)cs3)c(OCCN3CCNC3=O)c2)cc1CCCCN [Compound 10e]
Out: 5.28

In: Output pIC50 of CC[n+]1nn(-c2ccc(-c3nc(CCc4ccc(-c5ccccc5)cc4)cs3)c(OCCN3CCNC3=O)c2)cc1CCCCN [Compound 10f]
Out: 5.41

In: Output pIC50 of C[n+]1nn(-c2ccc(-c3nc(CCc4ccc5c(c4)CCO5)cs3)c(OCCN3CCNC3=O)c2)cc1CCCCN [Compound 10d]
Out: 5.27
